tested on: MDA-MB-453; experiment: In vitro inhibition of cell proliferation (1); assay type: cell-based; settings: Homo sapiens, 72 h; Breast cancer MDA-MB-453; 3 days; SRB
recordedEndpoint: IC50 (nM)
Output spec: scalar in nM, unitless text.

INSERT INTO assay_data (molecule, testsystem, recordedendpoint, unit, recordedvalue) VALUES
  ('C(=C\c1nc(COc2ccc(CCCn3ccnc3)cc2)co1)/c1ccccc1 [Compound 8]', 'MDA-MB-453', 'IC50', 'nM', 250);

Okay, next one:
State IC50 (MDA-MB-453) of C(=C\c1nc(COc2ccc(CCCCn3cncn3)cc2)co1)/c1ccccc1 [Compound 2] . 660
